The measured values listed here are drawn from ChEMBL document CHEMBL4513146.

# Test system: Candida albicans
# experimental.conditions: Concentration 32 ug.mL-1; ASSAY_TEST Inhibition of Fungal Growth; detection method Absorption (OD530)
# Description: Antifungal activity against Candida albicans ATCC 90028 (CO-ADD:FG_001); MIC in YNB media using NBS plates, by OD630
Potency and affinity values are given separately.
Rule: YES for Inhibition not less than 2%, NO for anything less.

INPUT: Quick check, Inhibition >= 2%? `O=c1c2nn(Cc3cccc(Cl)c3)c(=O)n2ccn1-c1ccccc1`
OUTPUT: YES

INPUT: Quick check, Inhibition >= 2%? `CCCCOc1ccc(-c2cc3c4nnc(SCC(=O)Nc5cc(F)ccc5C)n4ccn3n2)cc1`
OUTPUT: YES

INPUT: Quick check, Inhibition >= 2%? `O=C(Cn1nc2ccc(Sc3ccccc3)nn2c1=O)Nc1ccc(F)c(Cl)c1`
OUTPUT: NO

INPUT: Quick check, Inhibition >= 2%? `CC(C)c1nnc2c(=O)n(CC(=O)Nc3ccc(Br)cc3)c3ccccc3n12`
OUTPUT: YES

INPUT: Quick check, Inhibition >= 2%? `O=c1c2nn(Cc3ccc(F)cc3)c(=O)n2ccn1-c1ccccc1`
OUTPUT: YES

INPUT: Quick check, Inhibition >= 2%? `COc1ccc(NC(=O)c2ccc3nn(CC(=O)Nc4ccc(C(C)C)cc4)c(=O)n3c2)cc1`
OUTPUT: YES

INPUT: Quick check, Inhibition >= 2%? `Cc1cc(C)cc(Oc2nccn3c(=O)n(CC(=O)Nc4cccc(Cl)c4)nc23)c1`
OUTPUT: NO

INPUT: Quick check, Inhibition >= 2%? `CCc1ccccc1Sc1nccn2c(=O)n(CC(=O)N3CCN(c4ccccc4)CC3)nc12`
OUTPUT: YES

INPUT: Quick check, Inhibition >= 2%? `CCc1nnc2c(SCC(=O)Nc3cc(Cl)ccc3OC)nc3ccccc3n12`
OUTPUT: NO

INPUT: Quick check, Inhibition >= 2%? `O=C(Cn1nc2ccc(-c3ccc(Cl)cc3)nn2c1=O)NC1CCCC1`
OUTPUT: NO

INPUT: Quick check, Inhibition >= 2%? `Cc1nnc2c(S(=O)(=O)N(Cc3cc(F)cc(F)c3)c3cccc(F)c3)cccn12`
OUTPUT: YES

* * *

Could you please report measured Inhibition for the items listed next?
# System: Klebsiella pneumoniae
# experimental.conditions: Concentration 32 ug.mL-1;; ASSAY_TEST Inhibition of Bacterial Growth; detection method Absorption (OD600); MEDIA CAMHB; plate type 384well; NBS; CORNING #3640; time 18 hr
# Description: Antibacterial activity against Klebsiella pneumoniae MDR ATCC 70063 (CO-ADD:GN_003); MIC in CAMBH media using NBS plates, by OD(600)
Potency and affinity values are given separately.
Expressed in %, but write only the number.

INPUT: Sample `Cc1cccc(Cn2nc3c(=O)n(-c4cccc(Cl)c4C)ccn3c2=O)c1` — what was its Inhibition?
OUTPUT: -2.16

INPUT: Sample `Cc1cccc(C)c1NC(=O)Cn1nc2c(Sc3cccc(F)c3)nccn2c1=O` — what was its Inhibition?
OUTPUT: 4.53

INPUT: Sample `COc1ccc(NC(=O)Cn2nc3ccc(SCc4ccc(Cl)cc4)nn3c2=O)cc1Cl` — what was its Inhibition?
OUTPUT: -2.5

INPUT: Sample `O=S(=O)(c1ccc2nncn2c1)N(Cc1cccc(F)c1)c1ccc(F)c(F)c1` — what was its Inhibition?
OUTPUT: 13.11

INPUT: Sample `CCc1nnc2c(S(=O)(=O)N(Cc3cccc(F)c3)c3cccc(C)c3)cccn12` — what was its Inhibition?
OUTPUT: 4.33

INPUT: Sample `O=C(Cn1nc2ccc(SCc3ccc(Cl)cc3)nn2c1=O)NCc1ccccc1` — what was its Inhibition?
OUTPUT: 6.87

INPUT: Sample `O=C(CSc1nnc2c(=O)n(-c3ccc(Br)cc3)ccn12)Nc1cc(F)ccc1F` — what was its Inhibition?
OUTPUT: 10.57

INPUT: Sample `Cc1cc2nn(CC(=O)NCc3ccccc3)c(=O)n2c(-c2ccc(C(F)(F)F)cc2)n1` — what was its Inhibition?
OUTPUT: -2.81

INPUT: Sample `CCOc1ccccc1CNC(=O)CCc1nnc2ccc(-c3ccc(C)cc3)nn12` — what was its Inhibition?
OUTPUT: 6.87

INPUT: Sample `CCCn1c(=O)c2sccc2n2c(=O)n(CC(=O)c3ccccc3)nc12` — what was its Inhibition?
OUTPUT: 3.65

INPUT: Sample CCC(Sc1nnc2c(=O)n(-c3cccc(OC)c3)ccn12)C(=O)Nc1cc(OC)ccc1OC (centres undefined) — what was its Inhibition?
OUTPUT: 1.63

INPUT: Sample COc1ccc(CNC(=O)Cn2nc3c(N4CC(C)CC(C)C4)nccn3c2=O)cc1 (centres undefined) — what was its Inhibition?
OUTPUT: -3.24

INPUT: Sample `O=C(Cn1nc2c(Sc3cccc(F)c3)nccn2c1=O)Nc1ccc(Br)cc1` — what was its Inhibition?
OUTPUT: 4.85

INPUT: Sample `Cc1ccc(Cn2nc3c(=O)n(-c4ccc(C)c(C)c4)ccn3c2=O)cc1` — what was its Inhibition?
OUTPUT: 14.01

INPUT: Sample `Cc1cc(C)cc(Nc2nc(C)cc3nn(CC(=O)NCc4ccco4)c(=O)n23)c1` — what was its Inhibition?
OUTPUT: 10.95

INPUT: Sample `O=C(Cn1nc2c(SCc3ccc(Cl)cc3)nccn2c1=O)Nc1ccccc1F` — what was its Inhibition?
OUTPUT: 4.91

INPUT: Sample `COc1ccc(CCn2c(=O)c3sccc3n3c(=O)n(Cc4ccccc4Cl)nc23)cc1OC` — what was its Inhibition?
OUTPUT: 5.53

INPUT: Sample `CSc1ccc(CNC(=O)Cn2nc3c(N4CCOCC4)nccn3c2=O)cc1` — what was its Inhibition?
OUTPUT: 9.81

INPUT: Sample `COc1cccc(Sc2nc3ccccc3n3c(=O)n(CC(=O)Nc4ccc(C)cc4)nc23)c1` — what was its Inhibition?
OUTPUT: 9.1

INPUT: Sample CCCCn1c(=O)c2sccc2n2c(CCC(=O)NC(C)C34CC5CC(CC(C5)C3)C4)nnc12 (centres undefined) — what was its Inhibition?
OUTPUT: 12.08

INPUT: Sample `CCCCN(C)c1ccc2nnc(CCc3nc(-c4cccc(Br)c4)no3)n2n1` — what was its Inhibition?
OUTPUT: 13.86

INPUT: Sample `COc1cccc(-n2ccn3c(SCC(=O)Nc4ccccc4Cl)nnc3c2=O)c1` — what was its Inhibition?
OUTPUT: 9.92

INPUT: Sample `O=C(CSc1nc2ccccc2n2cnnc12)NCc1ccccc1Cl` — what was its Inhibition?
OUTPUT: 2.85

INPUT: Sample `Cc1ccc(-n2ccn3c(SCC#N)nnc3c2=O)cc1C` — what was its Inhibition?
OUTPUT: 10.69

INPUT: Sample `Cc1ccccc1Oc1nccn2c(=O)n(CC(=O)Nc3ccccc3C(F)(F)F)nc12` — what was its Inhibition?
OUTPUT: 15.23

INPUT: Sample `Cc1ccc(NC(=O)Cn2nc3ccc(SC(C)(C)C)nn3c2=O)cc1Cl` — what was its Inhibition?
OUTPUT: 12.42

INPUT: Sample `Cc1cccc(Sc2nccn3c(=O)n(CC(=O)N4CCN(c5ccccc5)CC4)nc23)c1` — what was its Inhibition?
OUTPUT: 4.67

INPUT: Sample `Cc1cc(Br)ccc1NC(=O)Cn1nc2c(Sc3ccccc3)nccn2c1=O` — what was its Inhibition?
OUTPUT: 5.06

INPUT: Sample `COc1ccc(CCn2c(=O)c3sccc3n3c(=O)n(Cc4ccc(F)cc4)nc23)cc1OC` — what was its Inhibition?
OUTPUT: 6.56

INPUT: Sample `Cc1ccc(Cl)cc1NC(=O)Cn1nc2c3c4c(sc3ncn2c1=O)CCCCC4` — what was its Inhibition?
OUTPUT: 13.99

INPUT: Sample `CCCCOc1ccc(-c2cc3c4nnc(SCC(=O)Nc5c(C)cccc5C)n4ccn3n2)cc1` — what was its Inhibition?
OUTPUT: 2.94

INPUT: Sample `COc1ccc(NC(=O)c2ccc3nn(CC(=O)Nc4cccc(OC)c4)c(=O)n3c2)cc1` — what was its Inhibition?
OUTPUT: 8.13

INPUT: Sample `CCc1ccccc1Sc1nccn2c(=O)n(CC(=O)N3CCN(c4ccccc4F)CC3)nc12` — what was its Inhibition?
OUTPUT: 1.78

INPUT: Sample `Cc1ccc(NC(=O)CSc2nnc3ccc(C(=O)Nc4cccc(F)c4)cn23)cc1F` — what was its Inhibition?
OUTPUT: 6.03

* * *

# Test system: Klebsiella pneumoniae
# experimental.conditions: Concentration 32 ug.mL-1;; ASSAY_TEST Inhibition of Bacterial Growth; detection method Absorption (OD600); MEDIA CAMHB; plate type 384well; NBS; CORNING #3640; time 18 hr
Potency and affinity values are given separately.
experimental.readout: Inhibition (%)
Expressed in %, but write only the number.

INPUT: Sample `O=C(Cn1nc2c3c4c(sc3ncn2c1=O)CCCC4)NCCc1ccc(Cl)cc1` — what was its Inhibition?
OUTPUT: 9.47

INPUT: Sample `CCc1nnc2c(S(=O)(=O)N(Cc3cc(F)cc(F)c3)c3ccc(C)cc3)cccn12` — what was its Inhibition?
OUTPUT: 20.07

INPUT: Sample `Cc1nnc2ccc(S(=O)(=O)N(Cc3cccc(F)c3)c3ccc(F)cc3)cn12` — what was its Inhibition?
OUTPUT: 4.75

INPUT: Sample `Cc1nnc2c(S(=O)(=O)N(Cc3ccccc3)c3ccc(C(C)C)cc3)cccn12` — what was its Inhibition?
OUTPUT: 8.51

INPUT: Sample `COc1ccc(-c2cc3c4nnc(SCC(=O)Nc5ccc(C)c(F)c5)n4ccn3n2)cc1` — what was its Inhibition?
OUTPUT: 1.13

INPUT: Sample `CCCc1nnc2c(=O)n(CC(=O)Nc3cccc(C(C)=O)c3)c3ccccc3n12` — what was its Inhibition?
OUTPUT: -4.73

INPUT: Sample `Cc1cccc(Oc2nccn3c(=O)n(CC(=O)N4CCN(c5ccc(F)cc5)CC4)nc23)c1C` — what was its Inhibition?
OUTPUT: 7.83

INPUT: Sample `COc1cc(NC(=O)Cn2nc3ccc(SC(C)(C)C)nn3c2=O)cc(OC)c1OC` — what was its Inhibition?
OUTPUT: 14.77

INPUT: Sample `COc1ccc(-c2cc3c4nnc(SCC(=O)NCc5ccc(C)cc5)n4ccn3n2)cc1` — what was its Inhibition?
OUTPUT: 7.85
